# Test system: Pseudomonas aeruginosa
# assay-info: Antibacterial activity against Pseudomonas aeruginosa after 24 hr by two-fold serial dilution method
# Assay type: functional
property-label: MIC (µg/mL)
All answers are understood in µg/mL, so give the number only.

# count of solved cases: 4
O=C(O)c1cn(C2CC2)c2cc(N3CCNCC3)c(F)cc2c1=O: 50
CCC1/C(=N\O)CC(c2ccco2)N(C=O)C1c1ccco1 (stereo not given): 100
CC1/C(=N\O)CC(c2ccco2)N(C=O)C1c1ccco1 (stereo not given): 100
CC(C)C1/C(=N\O)CC(c2ccco2)N(C=O)C1c1ccco1 (stereo not given): 50

Now for another entry.
Exercise: Reported MIC, molecule O=CN1C(c2ccco2)C/C(=N/O)C(Cc2ccccc2)C1c1ccco1 (stereo not given) : ____
Solution: 25

====

# Test system: Rhizopus
# assay-info: Antifungal activity against Rhizopus after 72 to 96 hr by two-fold serial dilution method
# Assay type: functional
// reported MIC per item
All answers are understood in µg/mL, so give the number only.

# count of solved cases: 2
O=CN1C(c2ccco2)C/C(=N/O)C(Cc2ccccc2)C1c1ccco1 (stereo not given): 50
CCC1/C(=N\O)CC(c2ccco2)N(C=O)C1c1ccco1 (stereo not given): 25

Exercise: Reported MIC, compound CC(C)C1/C(=N\O)CC(c2ccco2)N(C=O)C1c1ccco1 (stereo not given) : ____
Solution: 50

Exercise: Reported MIC, compound CC1/C(=N\O)CC(c2ccco2)N(C=O)C1c1ccco1 (stereo not given) : ____
Solution: 50

Exercise: Reported MIC, compound `C[C@@H]1[C@H](O)[C@@H](C)/C=C/C=C/C=C/C=C/C=C/C=C/C=C/[C@H](O[C@@H]2O[C@H](C)[C@@H](O)[C@H](N)[C@@H]2O)C[C@@H]2O[C@](O)(C[C@@H](O)C[C@@H](O)[C@H](O)CC[C@@H](O)C[C@@H](O)CC(=O)O[C@H]1C)C[C@H](O)[C@H]2C(=O)O` : ____
Solution: 50

====

# Tested on: Klebsiella pneumoniae
# assay-info: Antibacterial activity against Klebsiella pneumoniae after 24 hr by two fold serial dilution method
# Type: functional
// reported MIC per item
All answers are understood in µg/mL, so give the number only.

O=CN1C(c2ccco2)C/C(=N/O)C(Cc2ccccc2)C1c1ccco1 (centres undefined): 25

Exercise: Reported MIC, molecule CCC1/C(=N\O)CC(c2ccco2)N(C=O)C1c1ccco1 (centres undefined) : ____
Solution: 50

Exercise: Reported MIC, molecule CC1/C(=N\O)CC(c2ccco2)N(C=O)C1c1ccco1 (centres undefined) : ____
Solution: 100

Exercise: Reported MIC, molecule CC(C)C1/C(=N\O)CC(c2ccco2)N(C=O)C1c1ccco1 (centres undefined) : ____
Solution: 25
